# Target Or System: His-tagged Human KRAS^G12D (Homo sapiens (Human), UniProt P01116, G12D)
# Sequence (P01116-2 other isoform, or with tags, fused parts or gaps G12D): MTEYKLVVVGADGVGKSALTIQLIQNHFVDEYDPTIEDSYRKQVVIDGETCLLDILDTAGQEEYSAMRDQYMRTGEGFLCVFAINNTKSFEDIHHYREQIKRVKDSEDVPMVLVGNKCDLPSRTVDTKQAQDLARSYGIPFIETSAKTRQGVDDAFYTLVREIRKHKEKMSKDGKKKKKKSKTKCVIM
# Method Description: HTRF KRAS G12D GTP binding assay
# Run Parameters: displacement of GTP-Red tracer
Measure: IC50

Study these solved cases before continuing.
CCc1c(F)ccc2cc(O)cc(-c3ncc4c(N5CCC6(CCCC6=O)CC5)nc(OC[C@@]56CCCN5C[C@H](F)C6)nc4c3F)c12 = > 1000 nM
CCc1c(F)ccc2cc(O)cc(-c3ncc4c(N5CCCC6(CCN6)C5)nc(OC[C@@]56CCCN5C[C@H](F)C6)nc4c3F)c12 (stereo partly drawn) = > 1000 nM
CCc1c(F)ccc2cc(O)cc(-c3ncc4c(N5CC6(COC6)C5)nc(OC[C@@]56CCCN5C[C@H](F)C6)nc4c3F)c12 = > 1000 nM
CCc1c(F)ccc2cc(O)cc(-c3ncc4c(N5CCC6(CCO6)CC5)nc(OC[C@@]56CCCN5C[C@H](F)C6)nc4c3F)c12 = > 1000 nM
CCc1c(F)ccc2cc(O)cc(-c3ncc4c(N5CC6(CCC6O)C5)nc(OC[C@@]56CCCN5C[C@H](F)C6)nc4c3F)c12 (stereo partly drawn) = > 1000 nM

Then this compound:
Read the entry CCc1c(F)ccc2cc(O)cc(-c3ncc4c(N5CC6(CCO6)C5)nc(OC[C@@]56CCCN5C[C@H](F)C6)nc4c3F)c12 and write its reported IC50.
> 1000 nM

====

# Target Or System: His-tagged Human KRAS^G12D (Homo sapiens (Human), UniProt P01116, G12D)
# Method Description: HTRF KRAS G12D GTP binding assay
# Run Parameters: displacement of GTP-Red tracer
pIC50: −log10 of the molar value.
Measure: pIC50

Study these solved cases before continuing.
CCc1c(F)ccc2cc(O)cc(-c3ncc4c(N5CCCCC(OC)C5)nc(OCC5(CN(C)C)CC5)nc4c3F)c12 (stereo not drawn) [Compound 45a] = < 6.00
CCc1c(F)ccc2cc(O)cc(-c3ncc4c(N5CCCC(C#N)CC5)nc(OCC5(CN(C)C)CC5)nc4c3F)c12 (stereo not drawn) [Compound 42a] = < 6.00
CCc1c(F)ccc2cc(O)cc(-c3ncc4c(N5CC[C@H](CO)C5)nc(OC[C@@]56CCCN5C[C@H](F)C6)nc4c3F)c12 [Compound 48] = < 6.00

Read the entry CCc1c(F)ccc2cc(O)cc(-c3ncc4c(NC5CC6(CCC6)C5)nc(OC[C@@]56CCCN5C[C@H](F)C6)nc4c3F)c12 [Compound 28] and write its reported pIC50.
< 5.00

Read the entry CCc1c(F)ccc2cc(O)cc(-c3ncc4c(N5CCC6(COC6)C5)nc(OC[C@@]56CCCN5C[C@H](F)C6)nc4c3F)c12 [Compound 61] and write its reported pIC50.
< 6.00

Read the entry CCc1c(F)ccc2cc(O)cc(-c3ncc4c(N5CC[C@@H](CO)C5)nc(OC[C@@]56CCCN5C[C@H](F)C6)nc4c3F)c12 [Compound 32] and write its reported pIC50.
< 6.00

====

List of pIC50 values.
# Target Or System: His-tagged Human KRAS^G12D (Homo sapiens (Human), UniProt P01116, G12D)
# Method Description: HTRF KRAS G12D GTP binding assay
# Run Parameters: displacement of GTP-Red tracer
pIC50: −log10 of the molar value.

Study these solved cases before continuing.
CCc1c(F)ccc2cc(O)cc(-c3ncc4c(N5C[C@@H]6C[C@@H](O)[C@H]5C6)nc(OC[C@@]56CCCN5C[C@H](F)C6)nc4c3F)c12 [Compound 27] = < 5.00
CCc1c(F)ccc2cc(O)cc(-c3ncc4c(N5CCC[C@]6(CCO6)C5)nc(OCC5(CN(C)CC6CCOC6)CC5)nc4c3F)c12 (stereo partly shown) [Compound 50a] = 8.17

Read the entry CCc1c(F)ccc2cc(O)cc(-c3ncc4c(N5CCC6(CNC(=O)O6)C5)nc(OC[C@@]56CCCN5C[C@H](F)C6)nc4c3F)c12 (stereo partly shown) [Compound 43] and write its reported pIC50.
< 6.00

Read the entry CCc1c(F)ccc2cc(O)cc(-c3ncc4c(N5CC(C)(O)C5)nc(OC[C@@]56CCCN5C[C@H](F)C6)nc4c3F)c12 [Compound 18] and write its reported pIC50.
< 5.00

Read the entry CCc1c(F)ccc2cc(O)cc(-c3ncc4c(N5CCC[C@]6(CCO6)C5)nc(OCC5(N(C)C)CC5)nc4c3F)c12 [Compound 37a] and write its reported pIC50.
6.92

Read the entry CN(C)CC1(COc2nc(N3CCC[C@]4(CCO4)C3)c3cnc(-c4ccc(F)c5sc(N)c(C#N)c45)c(F)c3n2)CC1 [Compound 35a] and write its reported pIC50.
< 6.00

Read the entry CN(C)CC1(COc2nc(N3CCC[C@]4(CCO4)C3)c3cc(Cl)c(-c4ccc(F)c5sc(N)c(C#N)c45)c(F)c3n2)CC1 [Compound 39a] and write its reported pIC50.
< 6.00

====

# Target Or System: His-tagged Human KRAS^G12D (Homo sapiens (Human), UniProt P01116, G12D)
# Method Description: HTRF KRAS G12D GTP binding assay
# Run Parameters: displacement of GTP-Red tracer
Measure: IC50

Study these solved cases before continuing.
CCc1c(F)ccc2cc(O)cc(-c3ncc4c(N5CC[C@@H](C(C)(C)O)C5)nc(OC[C@@]56CCCN5C[C@H](F)C6)nc4c3F)c12 = > 10000 nM
CCc1c(F)ccc2cc(O)cc(-c3ncc4c(N5CC6CC(CO)(C6)C5)nc(OC[C@@]56CCCN5C[C@H](F)C6)nc4c3F)c12 = > 1000 nM
CCc1c(F)ccc2cc(O)cc(-c3ncc4c(N5CCCC(c6ccccc6)C5)nc(OC[C@@]56CCCN5C[C@H](F)C6)nc4c3F)c12 (stereo partly drawn) = > 10000 nM
CCc1c(F)ccc2cc(O)cc(-c3ncc4c(N5C[C@H](N)C[C@H]5CO)nc(OC[C@@]56CCCN5C[C@H](F)C6)nc4c3F)c12 = > 1000 nM
Cc1ccc2[nH]ncc2c1-c1ccc2c(N3CCC[C@]4(CCO4)C3)nc(OCC3(CN(C)C)CC3)nc2c1F [Compound 14a] = > 1000 nM

Then this molecule:
Read the entry CCc1c(F)ccc2cc(O)cc(-c3ncc4c(N5C[C@H]6C[C@@H]5C(=O)N6)nc(OC[C@@]56CCCN5C[C@H](F)C6)nc4c3F)c12 and write its reported IC50.
> 1000 nM
